Biological target: VEGF165 (Homo sapiens, UniProt P15692-4 P15692-4:27-191)
Sequence (P15692 other isoform, or with tags, fused parts or gaps): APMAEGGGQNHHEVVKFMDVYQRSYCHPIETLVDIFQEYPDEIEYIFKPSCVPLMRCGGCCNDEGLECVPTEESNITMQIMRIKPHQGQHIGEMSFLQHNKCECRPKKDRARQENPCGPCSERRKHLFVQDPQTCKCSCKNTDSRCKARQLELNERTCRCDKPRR
Experiment: filter; 37 C
Conditions: tags: carrier-free, Sf 21 insect cell expressed, R & D Systems; chain copies: 2 (inferred)
Protocol: Nucleic Acid Ligands radiolabeled during transcription by incorporation of α-[³²P]-labeled NTPs, or after synthesis using γ-[³²P]-ATP and T4 polynucleotide kinase, were incubated in low concentration (between 20 and 70 pM) with varying concentrations of VEGF or other growth factors at 37° C. for 15 minutes. […] Filters were immersed in scintillant and counted to quantitate the amount of protein-bound RNA retained by each filter. […]
Here, each record is paired with measured log10(Kd) data.
Please keep in mind that the values are log10 of Kd expressed in nM.

>  <binder>
GACGAUGCGGUAGGAAGAAUUGGAAGCGC (ssRNA, 2'-F pyrimidines, N30 = 3'-3' inverted dT [30 = 3'-3' inverted dT; all C/U at 1-29 = 2'-F]) [t22]

>  <log10(Kd)>
-1.15

$$$$
>  <binder>
AACCGAUGGAAUUUUUGGACGCU (ssRNA, 2'-F pyrimidines, N24 = 3'-3' inverted dT [24 = 3'-3' inverted dT (N replaced by T); 2'-F pyrimidines at 3,4,7,12,13,14,15,16,20,22,23]) [t2d]

>  <log10(Kd)>
1.30

$$$$
>  <binder>
CGAACCGAUGGAAUUUUUGGACGCUCG (ssRNA, 2'-F pyrimidines) [t2b]

>  <log10(Kd)>
-1.00

$$$$
>  <binder>
GGAAUCAGUGAAUGCUUAUACAUCC (ssRNA, 2'-F pyrimidines except 2'-OH C25) [t44b]

>  <log10(Kd)>
-1.22

$$$$

Next binder, log10(Kd) to be filled in.
(Q) Fill in log10(Kd) for record CGGAAUCAGUGAAUGCUUAUACAUCCG (ssRNA, 2'-F pyrimidines) [t44a]
(A) -2.00
